Molecular target: Luciferin 4-monooxygenase (Photinus pyralis) (UniProt P08659)
Sequence (P08659 whole entry, looked up): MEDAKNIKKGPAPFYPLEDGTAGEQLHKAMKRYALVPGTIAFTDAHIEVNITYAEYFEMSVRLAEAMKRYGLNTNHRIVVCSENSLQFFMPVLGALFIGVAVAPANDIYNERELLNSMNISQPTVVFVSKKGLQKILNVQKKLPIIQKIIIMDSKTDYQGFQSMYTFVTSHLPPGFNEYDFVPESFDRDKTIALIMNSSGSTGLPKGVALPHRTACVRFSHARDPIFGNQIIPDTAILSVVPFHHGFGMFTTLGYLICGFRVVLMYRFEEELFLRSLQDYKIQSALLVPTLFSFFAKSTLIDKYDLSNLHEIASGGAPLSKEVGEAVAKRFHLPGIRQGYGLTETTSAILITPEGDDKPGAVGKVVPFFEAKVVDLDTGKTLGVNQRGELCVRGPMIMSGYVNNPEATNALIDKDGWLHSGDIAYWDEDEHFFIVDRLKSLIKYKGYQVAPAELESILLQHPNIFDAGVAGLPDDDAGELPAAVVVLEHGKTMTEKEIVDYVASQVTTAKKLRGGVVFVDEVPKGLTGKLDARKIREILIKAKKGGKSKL
Assay: qHTS profiling assay for firefly luciferase inhibitor/activator using purifed enzyme and Km concentrations of substrates (counterscreen for miR-21 project); note: nearly all actives have a fitted effect of over 55% in size
Details: purified FLuc, luminescence inhibition; series mostly up to 57.5 µM
Among all 360,000 compounds or so, about 25,000 (6.9%) were called active. Another 9% or so got no clear call; they are omitted. Calls come from the whole dose curve; as a rule, active = well fitted inhibition curve with a large enough effect; inconclusive = small, poorly fitted or top-dose-only effect; inactive = flat fitted curve, though single readings scatter. This excerpt belongs to a sample that is enriched for actives.
Answer with one of the outcomes given here: 1.0 = active, 0.0 = inactive

>>> group("CC(CC(=O)Nc1ccccc1)n1ccnc1 (stereo not drawn)")
0.0
>>> group("COc1ccc(CNC(=O)Cn2nnc(-c3ccccc3F)n2)cc1")
0.0
>>> group("CCCCn1c(N)c(N(CC)C(=O)c2ccc(N(C)S(=O)(=O)c3ccc(C)cc3)cc2)c(=O)[nH]c1=O")
0.0
>>> group("CCc1cc(C(=O)c2ccc(OC)cc2)c(NC(=O)CN2CCN(C)CC2)s1")
0.0
>>> group("CCOc1ccc(-c2nc(C)sc2CC(=O)O)cc1")
0.0
>>> group("Cc1ccc(-n2c(SCC(=O)N3CCC(C(=O)O)CC3)nc3ccccc3c2=O)cc1C")
1.0
>>> group("Cc1cc(C)cc(OC(C)C(=O)Nc2nc3c(s2)CCCC3)c1 (stereo not drawn)")
0.0
>>> group("Fc1ccc2nc(Nc3nc4c(s3)CCCC4)sc2c1")
1.0
>>> group("CCc1cc(C(N)=O)c(NC(=O)c2ccc(OC)cc2)s1")
1.0
>>> group("CCc1cc(C(c2ccccc2OC)N2CCOCC2)c(NC(=O)c2ccccc2)s1 (stereo not drawn)")
0.0

### Prompt What did the test return for C/C(=N\NC(=O)CC(C)C)c1c(C(F)(F)F)[nH]n(-c2nc3ccccc3s2)c1=O ?
### Response 1.0

### Prompt What did the test return for Nc1nc(SCC(=O)NCCN2CCOCC2)nc2sc3c(c12)CCC3 ?
### Response 0.0

### Prompt What did the test return for CC(C)CN(C(=O)c1ccc2c(c1)OCO2)C1CCS(=O)(=O)C1 (stereo not drawn) ?
### Response 0.0

### Prompt What did the test return for CCOCCCNC(=O)c1c(NC(=O)Cc2coc3ccc(C)cc23)sc2c1CCC2 ?
### Response 0.0

### Prompt What did the test return for Cc1ccc(C)c(OCC(=O)Nc2sc3c(c2C#N)CCCC3)c1C ?
### Response 0.0

### Prompt What did the test return for COC(=O)c1c(NC(=O)c2cc(=O)c3c(C)cc(C)cc3o2)sc2c1CCCC2 ?
### Response 0.0

### Prompt What did the test return for CCC1(CC)NC(=O)N(Cc2nc3ccccc3s2)C1=O ?
### Response 0.0

### Prompt What did the test return for Cc1oc2c(c1C(=O)Nc1ccc(F)c(F)c1)C1=NCCN1C=N2 ?
### Response 0.0

* * *

Biological target: Luciferin 4-monooxygenase (Photinus pyralis)
Assay: qHTS profiling assay for firefly luciferase inhibitor/activator using purifed enzyme and Km concentrations of substrates (counterscreen for miR-21 project); note: nearly all actives have a fitted effect of over 55% in size
Settings: purified FLuc, luminescence inhibition; series mostly up to 57.5 µM
Out of some 360,000 compounds screened, about 25,000 (6.9%) were called active. Inconclusive results (about 9%) are left out. Calls come from the whole dose curve; as a rule, active = well fitted inhibition curve with a large enough effect; inconclusive = small, poorly fitted or top-dose-only effect; inactive = flat fitted curve, though single readings scatter. This is one part of a sample in which actives are shown more often than they occur.
Answer with one of the outcomes given here: active, inactive

>>> group("C=CC(=O)OCCOCCOCCOCCOC(=O)C=C")
"inactive"
>>> group("CCN(CC)c1ccc(C(=O)N/N=C/c2ccc(N3CCOCC3)cc2)cc1")
"inactive"
>>> group("N#CCC(=O)NC1CCC(CC2CCC(NC(=O)CC#N)CC2)CC1 (stereo not given)")
"inactive"

### Prompt What did the test return for Cc1ccc(-n2c(-c3ccc(Cl)cc3)n[nH]c2=S)cc1 ?
### Response inactive

### Prompt What did the test return for Cc1nc(-c2ccc([N+](=O)[O-])cc2)c(-c2ccccc2)o1 ?
### Response inactive

### Prompt What did the test return for COc1ccc(CCNC(=O)c2ccc3c(c2)sc2nc(-c4ccc(C)cc4)cn23)cc1OC ?
### Response inactive

### Prompt What did the test return for COc1ccc(S(=O)(=O)NCC(c2ccc(N(C)C)cc2)N2CCc3ccccc32)cc1OC (stereo not given) ?
### Response inactive

### Prompt What did the test return for CC(NC(=O)c1ccc(S(=O)(=O)Nc2ccccc2)cc1)c1ccc(S(N)(=O)=O)cc1 (stereo not given) ?
### Response inactive

### Prompt What did the test return for CCOC(=O)c1c(NC(C)=O)sc2c(O)c(Br)ccc12 ?
### Response inactive

### Prompt What did the test return for Cc1cc(C(=O)N/N=C/c2ccc(N3CCOCC3)cc2)c(C)o1 ?
### Response active

* * *

Target: Luciferin 4-monooxygenase (Photinus pyralis) (UniProt P08659)
Experiment: qHTS profiling assay for firefly luciferase inhibitor/activator using purifed enzyme and Km concentrations of substrates (counterscreen for miR-21 project); note: nearly all actives have a fitted effect of over 55% in size
Settings: purified FLuc, luminescence inhibition; series mostly up to 57.5 µM
In all, about 360,000 compounds went through this assay and about 25,000 (6.9%) were called active. About 9% were inconclusive and are not listed. The call rests on the fitted dose curve; in most records, active means well fitted inhibition curve with a large enough effect; inconclusive means small, poorly fitted or top-dose-only effect; inactive means flat fitted curve, though single readings scatter. For the sample, actives were picked, then their nearest neighbours and some compounds at random.
Answer with one of the outcomes given here: active, inactive

The examples below pair each entry with its known result.
>>> group("CC(=O)Cn1cnc2c(cnn2-c2ccccc2)c1=O")
"inactive"
>>> group("CN1C(=O)/C(=C\\c2cc(Br)cs2)c2ccccc21")
"active"
>>> group("O=C(Cn1cnc2c(cnn2-c2ccccc2)c1=O)NCc1ccccc1")
"inactive"

### Prompt What did the test return for CC(Sc1ncnc2c1cnn2-c1ccccc1)C(=O)Nc1ccc(N2CCOCC2)cc1 (stereo unspecified) ?
### Response inactive

### Prompt What did the test return for O=C(Cn1cnc2c(cnn2-c2ccc(F)cc2)c1=O)NCCc1ccccc1 ?
### Response inactive

### Prompt What did the test return for COc1ccc(NC(=O)CSc2ncnc3[nH]ncc23)cc1 ?
### Response inactive

* * *

Molecular target: Luciferin 4-monooxygenase (Photinus pyralis) (UniProt P08659)
Experiment: qHTS profiling assay for firefly luciferase inhibitor/activator using purifed enzyme and Km concentrations of substrates (counterscreen for miR-21 project); note: nearly all actives have a fitted effect of over 55% in size
Conditions: purified FLuc, luminescence inhibition; series mostly up to 57.5 µM
Text: MLPCN Grant: 1 R21 NS059478-01 (miR-21 grant) Assay Provider: NCGC NCGC Assay Overview: Firefly (Photinus pyralis) luciferase is one of the most commonly used transcriptional reporters for a number of reasons. […] Although light produced in a bioluminescence reaction is of lower intensity than that produced during fluorescence emission, this is offset by little to no background light inherent to luminescent assays. […]
The whole screen tested about 360,000 compounds, of which about 25,000 (6.9%) were called active. Not shown: some 9% with an inconclusive outcome. The call rests on the fitted dose curve; in most records, active means well fitted inhibition curve with a large enough effect; inconclusive means small, poorly fitted or top-dose-only effect; inactive means flat fitted curve, though single readings scatter. The full list was thinned out, with actives kept by preference.
Answer with one of the outcomes given here: 1 (yes) = active, 0 (no) = inactive

The examples below pair each entry with its known result.
>>> group("CCOc1ccc(CNC(=O)c2ccc3nc(CC)c(CC)nc3c2)cc1OC")
"0 (no)"
>>> group("COc1ccc(C(=O)Nc2c(Cl)cc(Cl)cc2C(=O)N2CCC(C)CC2)cc1")
"0 (no)"
>>> group("CCc1ccc(NC(=O)C(=O)NNC(=O)c2cccs2)cc1")
"1 (yes)"
>>> group("O=C(/C=C(O)/C=C/c1ccc(O)cc1)/C=C/c1ccc(O)cc1")
"0 (no)"
>>> group("O=C(Nc1ccccc1)O/N=C1\\CCCCC1c1ccc([N+](=O)[O-])cc1[N+](=O)[O-] (stereo not given)")
"0 (no)"
>>> group("CN(C(=O)c1ccccn1)c1nnc(-c2ccccn2)s1")
"1 (yes)"

### Prompt What did the test return for O=C(NC1CC(=O)N(c2ccc(F)cc2)C1)c1cccs1 (stereo not given) ?
### Response 0 (no)

### Prompt What did the test return for O=C(Nc1ccccc1)O/N=C1/CCCc2occc21 ?
### Response 1 (yes)

### Prompt What did the test return for NS(=O)(=O)c1ccc(CCNC(=O)CCCCCn2c(=O)[nH]c3ccccc3c2=O)cc1 ?
### Response 0 (no)

### Prompt What did the test return for Cc1c(Cl)cccc1NC(=O)CCS(=O)(=O)c1ccc2c(c1)oc(=O)n2C ?
### Response 0 (no)

### Prompt What did the test return for Cn1cccc1/C=N/NC(=O)c1ccc(OC(F)(F)C(F)F)cc1 ?
### Response 1 (yes)

### Prompt What did the test return for O=S(=O)(/C=C/c1ccccc1)N1CCNCC1 ?
### Response 0 (no)

### Prompt What did the test return for O=C(/C=C/c1ccccc1)c1ccoc1 ?
### Response 1 (yes)

* * *

Target: Luciferin 4-monooxygenase (Photinus pyralis)
Experiment: qHTS profiling assay for firefly luciferase inhibitor/activator using purifed enzyme and Km concentrations of substrates (counterscreen for miR-21 project); note: nearly all actives have a fitted effect of over 55% in size
Conditions: purified FLuc, luminescence inhibition; series mostly up to 57.5 µM
Among all 360,000 compounds or so, about 25,000 (6.9%) were called active. About 9% were inconclusive and are not listed. Calls follow the shape of the dose curve; as a rule, active = well fitted inhibition curve with a large enough effect; inconclusive = small, poorly fitted or top-dose-only effect; inactive = flat fitted curve, though single readings scatter. The list comes from a sample in which actives are over-represented; it also holds close analogues and randomly drawn compounds.
Answer with one of the outcomes given here: 1 (active), 0 (inactive)

>>> group("COc1ccc(C(=O)NNC(=S)NC(=O)c2ccccc2)cc1")
0

### Prompt What did the test return for C=CCNC(=O)c1ccc(C)c(Br)c1 ?
### Response 0

### Prompt What did the test return for CCCNC(=O)c1ccc2c(c1)ncn2-c1ccc(C)cc1C ?
### Response 0

### Prompt What did the test return for Cc1ccccc1OCCC(=O)OCC(=O)NCCc1ccc(S(N)(=O)=O)cc1 ?
### Response 0

### Prompt What did the test return for Nc1nc(SCCOc2ccccc2)n[nH]1 ?
### Response 0

### Prompt What did the test return for O=C(Nc1ccc(N2CCN(C(=O)C3CC3)CC2)cc1)c1cccs1 ?
### Response 0

### Prompt What did the test return for COc1ccc(NC(=O)CS(=O)(=O)c2ccccc2)cc1 ?
### Response 0

Source of measurements: PubChem BioAssay AID588342
